src = patent US9073903B2

test system: DU145 cells; assay: Inhibition of DU145 cells (MTS cell proliferation); assay type: cell-based; conditions: Homo sapiens, DU-145; Table 26; DU145; 72 hours; read-out: 50% viability conc.
observationType: IC50 (nM)

>>> readoutvalue("Nc1ccn([C@@H]2O[C@H](CO)[C@@H](O)C2(F)F)c(=O)n1")
1280

====

tested on: LNCaP; experiment: Inhibition of LNCaP cells (MTS cell proliferation); type: cell-based; conditions: Homo sapiens; Table 26; LNCaP; 72 hours; read-out: IC50
pIC50: −log10 of the molar value.
observationType: pIC50

>>> readoutvalue("Nc1ccn([C@@H]2O[C@H](CO)[C@@H](O)C2(F)F)c(=O)n1")
5.62

====

Below, each entry is listed alongside its reported Percent Kinase Activity of Enzyme Pim-2.
test system: different kinases; assay: Kinase activity screening by Millipore UK Ltd, percent kinase activity at 300 nM of compound (Table 31); type: biochemical; conditions: Pim-2
observationType: Percent Kinase Activity of Enzyme Pim-2 (%)

>>> readoutvalue("Nc1cccc2c1CCN(c1nccc(/C=C3\\NC(=O)NC3=O)n1)C2 [Example 66]")
86
>>> readoutvalue("O=C1NC(=O)/C(=C/c2ccnc(N3CCC(CNCc4ccc5ccccc5n4)CC3)n2)N1 [Example 68]")
69
>>> readoutvalue("Nc1ccc2c(c1)CN(c1nccc(/C=C3\\NC(=O)NC3=O)n1)CC2 [Example 64]")
81
>>> readoutvalue("NCC1CCN(c2nccc(/C=C3\\NC(=O)NC3=O)n2)CC1 [Example 65]")
78
>>> readoutvalue("CN(c1nccc(/C=C2\\NC(=O)NC2=O)n1)[C@H]1CCCNC1 [Example 67]")
99
>>> readoutvalue("O=C1NC(=O)/C(=C/c2ccnc(N3CCC(CNCc4cccc(-c5ccsc5)n4)CC3)n2)N1 [Example 69]")
86

====

tested on: PC-3 cells; assay: Inhibition of PC-3 cells (MTS cell proliferation); assay type: cell-based; settings: Homo sapiens, PC-3; Table 18; read-out: PC-3* 50% inhibition concentration
observationType: IC50

>>> readoutvalue("Nc1ccn([C@@H]2O[C@H](CO)[C@@H](O)C2(F)F)c(=O)n1")
"41.3 µM"

====

Below, each entry is listed alongside its reported Percent Kinase Activity of Enzyme CK1.
system: different kinases; experiment: Kinase activity screening by Millipore UK Ltd, percent kinase activity at 300 nM of compound (Table 31); format: biochemical; settings: CK1
observationType: Percent Kinase Activity of Enzyme CK1 (%)

>>> readoutvalue("NCC1CCN(c2nccc(/C=C3\\NC(=O)NC3=O)n2)CC1 [Example 65]")
97
>>> readoutvalue("Nc1ccc2c(c1)CN(c1nccc(/C=C3\\NC(=O)NC3=O)n1)CC2 [Example 64]")
81
>>> readoutvalue("CN(c1nccc(/C=C2\\NC(=O)NC2=O)n1)[C@H]1CCCNC1 [Example 67]")
104
>>> readoutvalue("O=C1NC(=O)/C(=C/c2ccnc(N3CCC(CNCc4ccc5ccccc5n4)CC3)n2)N1 [Example 68]")
97
>>> readoutvalue("O=C1NC(=O)/C(=C/c2ccnc(N3CCC(CNCc4cccc(-c5ccsc5)n4)CC3)n2)N1 [Example 69]")
92
>>> readoutvalue("Nc1cccc2c1CCN(c1nccc(/C=C3\\NC(=O)NC3=O)n1)C2 [Example 66]")
98
